TARGET: purified PTP domain of SHP2 (Homo sapiens (Human))
Sequence (Q06124 247-517): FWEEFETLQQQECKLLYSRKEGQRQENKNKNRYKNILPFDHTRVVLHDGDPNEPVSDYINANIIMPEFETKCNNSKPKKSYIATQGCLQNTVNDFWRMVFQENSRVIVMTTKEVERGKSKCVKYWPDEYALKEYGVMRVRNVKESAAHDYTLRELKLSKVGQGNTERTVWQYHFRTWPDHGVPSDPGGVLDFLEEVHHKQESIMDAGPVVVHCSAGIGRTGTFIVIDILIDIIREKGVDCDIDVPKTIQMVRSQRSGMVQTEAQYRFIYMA
METHOD: PTPase assay with DiFMUP, SHP2
Format: biochemical
CONDITION_SET: 1 nM enzyme, 20 μM DiFMUP, 37° C., 20 min
REPORTED_METRIC: pIC50
Give bare numbers, as −log10 of the molar value.

Lab book: pIC50 of CCCCCCCCCOc1ccc(-c2ccc(C(=O)O)cc2)cc1CCCC(=O)O noted as 6.06

###

TARGET: purified PTP domain of PTP1B (Homo sapiens (Human))
Sequence (P18031 3-277): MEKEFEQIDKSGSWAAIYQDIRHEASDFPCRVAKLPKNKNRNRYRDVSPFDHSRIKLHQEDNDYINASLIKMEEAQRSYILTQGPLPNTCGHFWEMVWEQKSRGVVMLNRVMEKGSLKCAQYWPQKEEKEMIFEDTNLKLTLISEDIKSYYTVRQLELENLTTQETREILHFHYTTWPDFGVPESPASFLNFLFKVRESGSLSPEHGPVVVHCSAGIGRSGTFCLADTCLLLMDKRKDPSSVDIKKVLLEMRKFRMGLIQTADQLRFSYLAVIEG
METHOD: PTPase assay with DiFMUP, PTP1B
Type: biochemical
CONDITION_SET: 10 μM DiFMUP
REPORTED_METRIC: pIC50
One number for each entry, as −log10 of the molar value.

Lab book: pIC50 of CCCCCCCCCOc1ccc(-c2ccc(C(=O)O)cc2)cc1CCCC(=O)O [CNBCA] noted as 4.60

###

TARGET: FL-SHP2 (Homo sapiens (Human), UniProt Q06124)
Sequence (Q06124 whole entry): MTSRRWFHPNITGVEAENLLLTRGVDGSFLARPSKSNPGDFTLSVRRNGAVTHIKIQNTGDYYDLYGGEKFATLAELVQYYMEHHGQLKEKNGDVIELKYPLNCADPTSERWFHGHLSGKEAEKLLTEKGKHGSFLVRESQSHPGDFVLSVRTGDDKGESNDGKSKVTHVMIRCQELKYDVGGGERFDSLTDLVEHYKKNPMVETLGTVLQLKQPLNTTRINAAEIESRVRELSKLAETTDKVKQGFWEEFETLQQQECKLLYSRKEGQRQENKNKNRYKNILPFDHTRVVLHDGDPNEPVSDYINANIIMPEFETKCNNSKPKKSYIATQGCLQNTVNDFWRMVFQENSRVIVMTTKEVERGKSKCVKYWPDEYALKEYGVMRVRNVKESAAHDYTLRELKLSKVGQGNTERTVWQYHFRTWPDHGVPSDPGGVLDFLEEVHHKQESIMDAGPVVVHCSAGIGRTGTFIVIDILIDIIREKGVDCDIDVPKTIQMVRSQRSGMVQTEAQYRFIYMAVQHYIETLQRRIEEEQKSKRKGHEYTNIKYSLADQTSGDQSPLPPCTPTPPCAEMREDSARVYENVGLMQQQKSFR
REPORTED_METRIC: pIC50
Numbers only, as −log10 of the molar value.

Lab book: pIC50 of CCCCCCCCCOc1ccc(-c2ccc(C(=O)O)cc2)cc1CCCC(=O)O [CNBCA] noted as 6.21
